Experiment: viability of HCT116 without oncogenic beta-catenin – human colon tumor cells, pilot screen (AID 823);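 further: 0% = wells killed by 20 µM Hyamine and 100% = untreated DMSO cell wells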
Conditions: HCT116 beta-catenin knockout viability, CellTiter-Glo, 60 h; at 10 µM; hits give low values
Inconclusive results are not listed.

MOLECULE: O=C(c1ccco1)c1nnn(Cc2ccccc2)c1-c1ccccc1
viability (%): 93.5
--
MOLECULE: O=C(c1cnn(-c2ccccc2)c1-n1cccc1)N1CCN(C2CCCCC2)CC1
viability (%): 94
--
MOLECULE: Cn1cnc2cc(NC(=O)c3ccc(Cl)cc3)ccc21
viability (%): 94.5
--
MOLECULE: COc1cc(NC(=O)C2C3C=CC(C3)C2C(=O)O)c(OC)cc1Cl (centres undefined)
viability (%): 101
--
MOLECULE: COc1ccc(S(=O)(=O)Nc2ccc(F)c(Cl)c2)cc1OC
viability (%): 86.3
--
MOLECULE: COC(=O)Cc1cc(=O)[nH]c(Nc2nc3ccccc3o2)n1
viability (%): 102
--
MOLECULE: COc1ccc(C2CC(c3ccc(OC)cc3)n3nc(N)nc3N2)cc1 (centres undefined)
viability (%): 105
--
MOLECULE: CC(C)Oc1ccc(/C(O)=C2/C(=O)C(=O)N(CCCN3CCOCC3)C2c2ccncc2)cc1 (centres undefined)
viability (%): 93.3
--
MOLECULE: COc1ccc(-c2nnc3sc(C(C)N4C(=O)c5ccccc5C4=O)nn23)cc1 (centres undefined)
viability (%): 101
--
MOLECULE: COc1ccccc1NC(=O)CSc1nnc(-c2ccco2)n1Cc1ccco1
viability (%): 92.8
--
MOLECULE: CC(OC(=O)C1CC=CCC1C(N)=O)C(Cl)=C(Cl)Cl (centres undefined)
viability (%): 103
--
MOLECULE: CCOC(=O)N1CCC(N2C(=O)c3ccccc3C2Nc2cc(Cl)c(OC)cc2OC)CC1 (centres undefined)
viability (%): 77.8
--
MOLECULE: O=C(c1cccs1)N1CCc2ccccc21
viability (%): 96.3
--
MOLECULE: CCCn1c(N2CCN(Cc3cccc(C)c3)CC2)nc2c1c(=O)[nH]c(=O)n2C
viability (%): 89.3
--
MOLECULE: CCOc1ccc(-c2cc(CCCC(=O)N3CCN(c4ccc(OC)cc4)CC3)no2)cc1
viability (%): 81.7
--
MOLECULE: CN(C)c1oc(-c2ccccc2F)nc1C#N
viability (%): 112
--
MOLECULE: Cc1ccc(CN2CCNC(=O)C2CC(=O)O)cc1 (centres undefined)
viability (%): 97.3
--
MOLECULE: c1ccc(C(Cc2nc(-c3ccccn3)no2)c2ccccc2)cc1
viability (%): 89.7
--
MOLECULE: Cn1c(=O)c(=O)n(C)c2cc(S(=O)(=O)CCC(=O)N3CCOCC3)ccc21
viability (%): 103
--
MOLECULE: CN(CCCNC(=O)c1cn(C)c2ccc(S(=O)(=O)N(C)C)cc2c1=O)c1ccccc1
viability (%): 94.8
--
MOLECULE: CCCn1nc(NC(=O)CC(C)C)c2cc3ccccc3nc21
viability (%): 87.5
--
MOLECULE: COc1ccc(S(=O)(=O)N(CC(=O)N2CCN(c3ccccc3OC)CC2)c2ccccc2)cc1
viability (%): 67.2
--
MOLECULE: c1cn2c(NC3CCCC3)c(-c3ccc(N4CCOCC4)cc3)nc2cn1
viability (%): 88.8
--
MOLECULE: Cc1cccc(Cn2c(SCCN3CCOCC3)nc3c2c(=O)n(C)c(=O)n3C)c1
viability (%): 103
--
MOLECULE: Cc1nc2ccc(S(=O)(=O)NC(C(=O)N3CCn4c3nc3ccccc34)C(C)C)cc2s1 (centres undefined)
viability (%): 102
--
MOLECULE: COC(=O)NCc1ccc(Cl)c(Cl)c1
viability (%): 85.4
--
MOLECULE: Oc1c(C(c2cccs2)N2CCN(c3ccc(F)cc3)CC2)sc2ncnn12 (centres undefined)
viability (%): 105
--
MOLECULE: COc1ccc(NC(=O)CC2Sc3ncnn3C2=O)cc1 (centres undefined)
viability (%): 95.2
--
MOLECULE: O=C(CN1C(=O)c2ccccc2S1(=O)=O)NCc1ccccc1Cl
viability (%): 102
--
MOLECULE: CC1CCCCC1NC(=O)CCS(=O)(=O)c1cccc2nonc12 (centres undefined)
viability (%): 98.9
--
MOLECULE: C(=N\c1nccs1)/c1cccnc1
viability (%): 108
--
MOLECULE: COc1cc2c(cc1OC)-c1nnc(C)n1C1(CCCC1)C2
viability (%): 100
--
MOLECULE: CC1CN(Cc2nc3c(c(=O)n(C)c(=O)n3C)n2Cc2ccccc2)CC(C)O1 (centres undefined)
viability (%): 106
--
MOLECULE: COC(=O)CSC1=C(C#N)C(c2ccc(F)cc2)CC(=O)N1 (centres undefined)
viability (%): 100
--
MOLECULE: O=C(O)c1ccc(NS(=O)(=O)c2cc(Cl)ccc2Cl)cc1
viability (%): 97.8
--
MOLECULE: Cc1ccc(-c2nc3cc(NC(=O)C(C)C)ccc3o2)cc1
viability (%): 82.6
--
MOLECULE: O=C(CSc1oc(-c2ccco2)nc1S(=O)(=O)c1ccc(F)cc1)NCC1CCCO1 (centres undefined)
viability (%): 101
--
MOLECULE: COc1ccc(-c2cnc(SCC(=O)Nc3ccc4c(c3)OCO4)n2Cc2ccco2)cc1
viability (%): 67.4
--
MOLECULE: CCOC(=O)C1=C(C)N(C)C(=O)NC1c1ccccc1OC (centres undefined)
viability (%): 97.9
--
MOLECULE: CN1CCN(CCCNC(=O)Cn2ncc3c4ccccc4n(C)c3c2=O)CC1
viability (%): 92.9
--
MOLECULE: COc1cccc(-c2nc(CS(=O)(=O)CC(=O)N3CCN(c4ccccn4)CC3)c(C)o2)c1
viability (%): 73.3
--
MOLECULE: COC(=O)C1=C(N)OC2=C(C(=O)CCC2)C1c1cccs1 (centres undefined)
viability (%): 94.9
--
MOLECULE: Cn1c(=O)oc2cc(S(=O)(=O)N3CCCC(C(=O)NCC4COc5ccccc5O4)C3)ccc21 (centres undefined)
viability (%): 86
--
MOLECULE: COc1ccc(C(=O)c2oc3ccc(Br)cc3c2NC(C)=O)cc1
viability (%): 97.7

Source of measurements: PubChem BioAssay
